molecular target: E1E2 of HCV isolate AMS.2b.20876551.kloon21 (genotype 2b) (Hepatitis C virus genotype 2b); assay: cell-based or functional assay
EXPERIMENTAL_READOUT: IC90, HCVpp neutralization (µg/mL)

# BINDER, OBS_VALUE
records = [
    ("AT12-009 (antibody, V domains shown) VH: SSVRVSCKASGDTFKTHAISWVRQAPGQGLEWVGGTVRQAPGDGLELLGGFVPILAPANDAQKFQGRVTITADGSTGPVYMDLSTLTSEDTAMYYCVTSLSEPIPRSCRGGRCYSGPFDAFGVWGQGTMVTVSS VL: ETMLTQSPVTLSVSPGERATLSCRASQSIGTNLAWYQQKPGQAPRLLIHGASTRATGVPVSFSGSGSGTEFTLTISSLQSEDFAVYYCQQYNNWPLTFGGGTKVDFKR", 6.17),
]
